# TARGET: recombinant human serotonin receptor 5-HT2A (Homo sapiens)
# Construct: expressed in transfected cells; method B: loaded with Ca2+ dye
# Sequence (P28223 whole entry): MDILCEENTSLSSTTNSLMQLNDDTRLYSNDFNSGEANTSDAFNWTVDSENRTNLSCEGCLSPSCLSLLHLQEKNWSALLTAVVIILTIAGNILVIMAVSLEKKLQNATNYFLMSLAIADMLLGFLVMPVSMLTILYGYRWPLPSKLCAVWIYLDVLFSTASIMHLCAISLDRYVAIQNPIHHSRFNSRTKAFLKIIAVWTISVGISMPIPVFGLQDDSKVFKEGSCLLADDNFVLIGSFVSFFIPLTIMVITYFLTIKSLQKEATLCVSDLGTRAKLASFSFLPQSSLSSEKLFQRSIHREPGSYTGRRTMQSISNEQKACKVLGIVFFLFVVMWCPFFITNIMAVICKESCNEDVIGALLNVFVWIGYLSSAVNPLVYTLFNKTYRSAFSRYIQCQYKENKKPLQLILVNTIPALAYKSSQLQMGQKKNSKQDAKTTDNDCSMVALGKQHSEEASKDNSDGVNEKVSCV
# MEASUREMENT DESCRIPTION: 5-HT2A antagonist Ca2+ assay in CHO-K1 cells (method A aequorin luminescence / method B FLIPR fluorescence)
# Assay type: cell-based
# ASSAY CONDITIONS: 5HT2A IC50, μM, antagonist mode vs EC80 of reference agonist, method A or B
Rule: measured IC50 below 0.03 µM gets class 1; anything equal to or greater than 0.03 µM gets class 0.

IN: Determine whether this compound shows IC50 lower than 0.03 µM (ties excluded): "O[C@H](COC1CCCCC1)CN1[C@@H]2CC[C@H]1CN(c1ccc(F)cc1)C2"
OUT: class 1

IN: Strictly below 0.03 µM: is that where IC50 of OC(COC1CCCCC1)CN1[C@@H]2CC[C@H]1CN(c1ccccc1)C2 (some centres unmarked) sits?
OUT: class 1

IN: Please let me know if OC(COC1CCCCC1)CN1CCC2(CCc3ccccc32)CC1 (centres unmarked) shows IC50 below 0.03 µM.
OUT: class 0

More entries:
IN: Please check: IC50 for OC(COC1CCCCC1)CN1CCC2(CC1)OCc1ccccc12 (centres unmarked) , strictly under 0.03 µM or not?
OUT: class 0

###

Form field: inhibition at 1 µM (one value per entry).
# TARGET: human sodium channel NaV1.2 (Homo sapiens, UniProt Q99250)
# Sequence (Q99250 whole entry): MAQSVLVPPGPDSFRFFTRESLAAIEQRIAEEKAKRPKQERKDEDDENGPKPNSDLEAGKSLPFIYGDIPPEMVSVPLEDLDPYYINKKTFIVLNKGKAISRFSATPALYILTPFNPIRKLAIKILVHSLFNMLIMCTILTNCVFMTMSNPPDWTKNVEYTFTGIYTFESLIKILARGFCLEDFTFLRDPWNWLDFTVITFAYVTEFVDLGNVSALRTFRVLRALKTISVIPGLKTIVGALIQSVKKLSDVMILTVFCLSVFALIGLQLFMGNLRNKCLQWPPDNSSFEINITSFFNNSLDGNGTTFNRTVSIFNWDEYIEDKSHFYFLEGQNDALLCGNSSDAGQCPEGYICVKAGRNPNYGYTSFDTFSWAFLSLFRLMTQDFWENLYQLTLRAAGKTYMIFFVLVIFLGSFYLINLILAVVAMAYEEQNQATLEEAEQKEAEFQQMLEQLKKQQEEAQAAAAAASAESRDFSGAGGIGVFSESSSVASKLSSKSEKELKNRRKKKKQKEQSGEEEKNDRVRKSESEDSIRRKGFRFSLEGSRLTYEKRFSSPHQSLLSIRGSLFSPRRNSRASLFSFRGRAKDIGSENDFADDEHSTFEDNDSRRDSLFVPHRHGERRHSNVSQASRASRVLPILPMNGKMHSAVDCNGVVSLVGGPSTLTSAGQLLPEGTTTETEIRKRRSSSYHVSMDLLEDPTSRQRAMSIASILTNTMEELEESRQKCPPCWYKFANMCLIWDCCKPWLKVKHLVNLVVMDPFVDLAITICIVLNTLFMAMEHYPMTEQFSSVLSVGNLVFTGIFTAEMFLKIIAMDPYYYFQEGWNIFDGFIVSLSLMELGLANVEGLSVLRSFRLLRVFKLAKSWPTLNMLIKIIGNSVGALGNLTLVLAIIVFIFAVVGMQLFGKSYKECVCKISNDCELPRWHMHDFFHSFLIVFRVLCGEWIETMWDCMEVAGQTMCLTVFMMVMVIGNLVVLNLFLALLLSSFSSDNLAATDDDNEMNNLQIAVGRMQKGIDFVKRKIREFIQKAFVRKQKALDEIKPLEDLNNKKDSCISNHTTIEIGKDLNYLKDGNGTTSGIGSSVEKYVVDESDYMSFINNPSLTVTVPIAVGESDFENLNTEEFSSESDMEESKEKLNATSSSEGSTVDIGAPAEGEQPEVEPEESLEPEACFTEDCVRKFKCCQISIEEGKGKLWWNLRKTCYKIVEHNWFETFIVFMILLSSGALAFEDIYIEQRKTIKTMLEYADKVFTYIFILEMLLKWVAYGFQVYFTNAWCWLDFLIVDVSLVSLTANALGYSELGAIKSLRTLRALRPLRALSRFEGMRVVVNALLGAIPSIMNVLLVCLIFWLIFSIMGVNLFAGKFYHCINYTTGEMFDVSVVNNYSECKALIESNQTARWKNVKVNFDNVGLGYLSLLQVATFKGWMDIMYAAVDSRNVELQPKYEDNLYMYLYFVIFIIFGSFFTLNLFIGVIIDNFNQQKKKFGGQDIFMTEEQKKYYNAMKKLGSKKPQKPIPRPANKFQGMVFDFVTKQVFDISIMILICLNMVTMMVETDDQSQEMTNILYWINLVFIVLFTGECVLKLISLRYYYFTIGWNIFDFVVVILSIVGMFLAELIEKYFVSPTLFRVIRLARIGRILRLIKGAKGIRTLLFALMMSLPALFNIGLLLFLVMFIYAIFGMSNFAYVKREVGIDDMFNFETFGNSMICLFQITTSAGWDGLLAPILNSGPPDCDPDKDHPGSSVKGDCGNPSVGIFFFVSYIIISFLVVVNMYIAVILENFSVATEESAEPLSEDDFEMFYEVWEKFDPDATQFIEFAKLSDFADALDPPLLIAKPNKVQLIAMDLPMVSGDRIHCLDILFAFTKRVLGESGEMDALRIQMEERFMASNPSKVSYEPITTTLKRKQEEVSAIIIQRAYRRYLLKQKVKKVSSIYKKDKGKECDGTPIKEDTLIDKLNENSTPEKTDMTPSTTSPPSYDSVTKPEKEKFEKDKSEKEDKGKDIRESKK
# MEASUREMENT DESCRIPTION: NaV1.2 inhibition, automated patch-clamp (Q-Patch HTX), slow inactivated state (state C)
# Assay type: cell-based
# ASSAY CONDITIONS: 1 μM compound; hNaV1.2 CHO cells, slow inactivated state; read-out: NaV1.2 (% inh), 1 μM
Give your result in % as a bare value.

IN: Field request: inhibition at 1 µM | item: COc1ccc2c(c1)C(CN1CC[C@@H](Oc3ccccc3OC)C[C@@H]1C)CC2 (some centres unmarked)
OUT: 82

IN: Looking for the measured inhibition at 1 µM of c1cnc(OC2CCN(CC3CCc4ccccc43)CC2)nc1 (centres unmarked) , can you help?
OUT: -3

IN: // query inhibition at 1 µM value for entry c1ccc2c(c1)CCC1(CCN(CC3Cc4ccncc4C3)CC1)O2 (centres unmarked)
OUT: 18

IN: Given N#Cc1ccc(OC2CCN(CC3CCOc4ccccc43)CC2)cc1 (centres unmarked) , state its recorded inhibition at 1 µM.
OUT: -2

Moving on to the next molecule.
IN: So what's the measured inhibition at 1 µM for this one? Fc1ccc(OC2CCN(CCC3CCCCO3)CC2)cc1 (centres unmarked)
OUT: 2

###

# TARGET: human sodium channel NaV1.2 (Homo sapiens)
# MEASUREMENT DESCRIPTION: NaV1.2 inhibition, automated patch-clamp (Q-Patch HTX), slow inactivated state (state C)
# Assay type: cell-based
# ASSAY CONDITIONS: 1 μM compound; hNaV1.2 CHO cells, slow inactivated state; read-out: NaV1.2 (% inh), 1 μM
OBSERVED PROPERTY: inhibition at 1 µM
A bare number is not enough; add the unit after it.

IN: // lookup inhibition at 1 µM for "C[C@@H]1C[C@@]2(CCc3ccccc3O2)CCN1CCN1CCc2ccccc2C1=O"
OUT: 41%

IN: // query inhibition at 1 µM value for entry CC1(C)Oc2ccccc2C1CN1CCC(Oc2ccccc2)CC1 (stereo not drawn)
OUT: -1%

IN: Item Fc1ccc(OC2CCN(CCC3CCc4ccncc43)CC2)cc1 (stereo not drawn) has what recorded inhibition at 1 µM?
OUT: 12%

IN: I would be grateful if you could share the reported inhibition at 1 µM for Cc1ccccc1OC1CCN(CC2Cc3cccnc3C2)CC1 (stereo not drawn) .
OUT: 44%

IN: So what's the measured inhibition at 1 µM for this one? c1ccc2c(c1)CCC1(CCN(CCC3COCc4ccccc43)CC1)O2 (stereo not drawn)
OUT: 29%

More entries:
IN: Fill in: inhibition at 1 µM of "O=C1Nc2ccccc2CC12CCN(C[C@H](O)COc1ccccc1)CC2" is ___
OUT: -2%

IN: Name the recorded inhibition at 1 µM for "O=C1c2cccnc2CN1CCN1CCC(Oc2ccc(F)cc2)CC1" .
OUT: -3%

IN: I am curious: what inhibition at 1 µM value has been reported for c1ccc2c(c1)CCC2CN1CCC2(CCc3cnccc3O2)CC1 (stereo not drawn) ?
OUT: 14%

IN: // returns reported inhibition at 1 µM for input Fc1ccc(OC2CCN(CCC3CCc4ncccc43)CC2)cc1 (stereo not drawn)
OUT: 34%
